Reference for the values: patent US20250230155A1

system: human mAChR M4 (Homo sapiens)
Construct: expressed in transfected cells
experimentDescription: mAChR M4 cell-based functional assay (calcium mobilization, CHO-K1 hM4-Gqi5 cells)
assayContext: positive allosteric modulator activity, increase in the EC20 acetylcholine response, CHO-K1 hM4-Gqi5 cells; read-out: Human M4 EC50
reportedEndpoint: EC50 (nM)

1: Cc1cc(C#N)cnc1N1CCc2ncc(N3CCCn4ccnc43)cc2C1
2: Cc1cc(C#N)nnc1N1CCc2ncc(-c3ccc(C4CC4)nc3)cc2C1
Hi! Which is lower in terms of EC50, the first one 1 or the second one 2 ? Reply briefly: the label of your chosen item. 2

P: Cc1cc(C(=O)NCc2ccc(Cl)nc2)cnc1N1CCc2ncc(-c3cn(C)nc3C)cc2C1
Q: Cc1cc(C(=O)NCc2ccc[nH]2)cnc1N1CCc2ncccc2C1
R: Cc1cc(C(=O)NC2(C#N)CC2)nnc1N1CCc2ncc(C(F)(F)F)cc2C1
Order the items by recorded EC50; the first position goes to the largest value. Sort and list the labels as requested. Q, P, R
(Q: 2660 nM, P: 1060 nM, R: 74 nM)

====

system: human mAChR M4 (Homo sapiens, UniProt P08173)
Construct: expressed in transfected cells
experimentDescription: mAChR M4 cell-based functional assay (calcium mobilization, CHO-K1 hM4-Gqi5 cells)
assayContext: positive allosteric modulator activity, increase in the EC20 acetylcholine response, CHO-K1 hM4-Gqi5 cells; read-out: Human M4 EC50
pEC50: −log10 of the molar value.
reportedEndpoint: pEC50

Worked set:
1. Cc1cc(C(=O)NCc2cncs2)nnc1N1CCc2ncc(N3CCCn4nccc43)cc2C1 [Example 489] = 8.30
2. Cc1cc(C#N)nnc1N1CCc2ncc(CC(F)(F)F)cc2C1 [Example 422] = 6.28
3. COCc1nc(Cl)c(C)c(N2CCc3ncc(Br)cc3C2)n1 [compound 211] = 6.91
4. Cc1cc(C#N)cnc1N1CCc2ncc(OCCOc3ccccc3)cc2C1 [Example 427] = 5.57
5. Cc1cc(C(=O)NCc2cncs2)cnc1N1CCc2ncc(-c3ccc(N(C)C)nc3)cc2C1 [Example 485] = 6.61
6. COc1cnccc1CNC(=O)c1cc(C)c(N2CCc3ncc(C(F)(F)F)cc3C2)nn1 [Example 495] = 7.37

1: Cc1cc(C(=O)NC23CC(F)(C2)C3)cnc1N1CCc2ncccc2C1 [compound 124]
2: Cc1c(C#N)nnc(N2CCc3ncc(Nc4nc(Cl)ncc4F)cc3C2)c1C [compound 81]
Hi! Which is lower in terms of pEC50, the first one 1 or the second one 2 ? Reply briefly: the label of your chosen item. 1

a: COc1cc(-c2cnc3c(c2)CN(c2nnc(C#N)c(C)c2C)CC3)ccn1 [compound 76]
b: Cc1cnccc1CNC(=O)c1cnc(N2CCc3ncccc3C2)c(C)c1 [compound 130]
Of a and b , whose reported pEC50 is the larger number? Reply briefly: the label of your chosen item. b

====

system: human mAChR M4 (Homo sapiens)
Construct: expressed in transfected cells
experimentDescription: mAChR M4 cell-based functional assay (calcium mobilization, CHO-K1 hM4-Gqi5 cells)
assayContext: positive allosteric modulator activity, increase in the EC20 acetylcholine response, CHO-K1 hM4-Gqi5 cells; read-out: Human M4 EC50
reportedEndpoint: EC50 (nM)

A: Cc1cnc2c(c1)CN(c1nnc(C(=O)NCc3ccncc3C)c(C)c1C)CC2 [Example 472]
B: Cc1cc(C(=O)Nc2ccncc2)cnc1N1CCc2ncc(-c3cn(C)nc3C)cc2C1 [Example 450]
Hi! Which is lower in terms of EC50, the first one A or the second one B ? Reply briefly: the label of your chosen item. A

====

system: human mAChR M4 (Homo sapiens)
Construct: expressed in transfected cells
Sequence (P08173 1-479): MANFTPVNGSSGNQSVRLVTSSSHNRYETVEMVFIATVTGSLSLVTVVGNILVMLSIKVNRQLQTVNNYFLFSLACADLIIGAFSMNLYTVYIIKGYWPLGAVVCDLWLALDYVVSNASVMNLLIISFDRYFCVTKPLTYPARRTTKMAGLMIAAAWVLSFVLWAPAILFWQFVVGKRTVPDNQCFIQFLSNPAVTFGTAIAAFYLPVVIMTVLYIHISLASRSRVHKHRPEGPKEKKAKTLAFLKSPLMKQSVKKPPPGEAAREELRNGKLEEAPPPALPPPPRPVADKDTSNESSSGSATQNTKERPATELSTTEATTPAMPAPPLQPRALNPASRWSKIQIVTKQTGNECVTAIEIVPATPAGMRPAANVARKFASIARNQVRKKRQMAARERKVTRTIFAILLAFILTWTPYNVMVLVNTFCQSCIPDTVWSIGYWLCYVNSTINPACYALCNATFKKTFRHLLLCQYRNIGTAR
experimentDescription: mAChR M4 cell-based functional assay (calcium mobilization, CHO-K1 hM4-Gqi5 cells)
assayContext: CHO-K1, % ACh maximum at 30 μM; human M4
reportedEndpoint: Emax at 30 µM (%)

Worked set:
1. Cc1cc(C#N)cnc1N1CCc2ncc(N3CCCn4nc(C(F)(F)F)cc43)cc2C1 = 62
2. Cc1cc(C(=O)NCc2ccc(C#N)nc2)cnc1N1CCc2ncc(-c3cn(C)nc3C)cc2C1 = 75
3. Cc1cc(C(=O)NCc2cncs2)cnc1N1CCc2ncc(Nc3ccnn3C)cc2C1 = 105
4. FC(F)(F)c1cnc2c(c1)CN(c1nc(C3CC3)nc3c1CCCC3)CC2 = 38

a: COCc1nc(Cl)c(C)c(N2CCc3ncc(C(F)(F)F)cc3C2)n1
b: Cc1c(C#N)nnc(N2CCc3ncc(Nc4c(F)cccc4Cl)cc3C2)c1C
Of a and b , whose reported Emax at 30 µM is the larger number? Reply briefly: the label of your chosen item. a

====

system: human mAChR M4 (Homo sapiens)
Construct: expressed in transfected cells
Sequence (P08173 1-479): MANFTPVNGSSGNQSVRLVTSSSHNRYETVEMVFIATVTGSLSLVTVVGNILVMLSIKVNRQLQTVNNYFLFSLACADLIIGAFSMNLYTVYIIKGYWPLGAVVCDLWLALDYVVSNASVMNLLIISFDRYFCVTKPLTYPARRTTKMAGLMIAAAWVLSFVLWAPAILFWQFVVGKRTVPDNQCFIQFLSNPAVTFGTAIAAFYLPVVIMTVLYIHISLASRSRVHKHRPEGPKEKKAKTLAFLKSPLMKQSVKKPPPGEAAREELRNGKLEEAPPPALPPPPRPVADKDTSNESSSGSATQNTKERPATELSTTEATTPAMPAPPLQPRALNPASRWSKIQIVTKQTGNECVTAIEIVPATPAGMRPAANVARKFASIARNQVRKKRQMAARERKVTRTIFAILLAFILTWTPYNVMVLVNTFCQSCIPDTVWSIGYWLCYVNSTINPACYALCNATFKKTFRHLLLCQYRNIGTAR
experimentDescription: mAChR M4 cell-based functional assay (calcium mobilization, CHO-K1 hM4-Gqi5 cells)
assayContext: CHO-K1, % ACh maximum at 30 μM; human M4
reportedEndpoint: Emax at 30 µM (%)

Worked set:
1. Cc1ccc(Oc2cnc3c(c2)CN(c2nc(C)nc(C)c2C)CC3)c(F)c1 = 89
2. Cc1nc(NC2CCOC2)nc(N2CCc3ncc(Nc4ccnn4C)cc3C2)c1C (centres unmarked) = 103
3. Cc1cc(C#N)cnc1N1CCc2ncc(-c3cnn(CC(F)(F)F)c3)cc2C1 = 80
4. Cc1c(C#N)nnc(N2CCc3ncc(N4CCO[C@@H](c5ccccc5)C4)cc3C2)c1C = 47
5. Cc1cc(C(=O)N2CC(F)(F)C2)nnc1N1CCc2ncc(-c3ccnn3C)cc2C1 = 75

P: COc1ccc(-c2cnc3c(c2)CN(c2nnc(C#N)c(C)c2C)CC3)cn1
Q: Cc1cc(C(=O)N2CC(C)(O)C2)nnc1N1CCc2ncc(N3CCCn4nccc43)cc2C1
R: Cc1cc(F)c(F)cc1-c1cnc2c(c1)CN(c1ncc(C#N)cc1C)CC2
Order the items by recorded Emax at 30 µM; the first position goes to the largest value. Sort and list the labels as requested. Q, P, R

a: Cc1cc(C#N)nnc1N1CCc2ncc(Oc3cccc(F)c3F)cc2C1
b: COc1ccc(Br)cc1CNC(=O)c1cnc(N2CCc3ncccc3C2)c(C)c1
Of a and b , whose reported Emax at 30 µM is the larger number? Reply briefly: the label of your chosen item. a
(a: 83%, b: 56%)

====

system: human mAChR M4 (Homo sapiens, UniProt P08173)
Construct: expressed in transfected cells
Sequence (P08173 1-479): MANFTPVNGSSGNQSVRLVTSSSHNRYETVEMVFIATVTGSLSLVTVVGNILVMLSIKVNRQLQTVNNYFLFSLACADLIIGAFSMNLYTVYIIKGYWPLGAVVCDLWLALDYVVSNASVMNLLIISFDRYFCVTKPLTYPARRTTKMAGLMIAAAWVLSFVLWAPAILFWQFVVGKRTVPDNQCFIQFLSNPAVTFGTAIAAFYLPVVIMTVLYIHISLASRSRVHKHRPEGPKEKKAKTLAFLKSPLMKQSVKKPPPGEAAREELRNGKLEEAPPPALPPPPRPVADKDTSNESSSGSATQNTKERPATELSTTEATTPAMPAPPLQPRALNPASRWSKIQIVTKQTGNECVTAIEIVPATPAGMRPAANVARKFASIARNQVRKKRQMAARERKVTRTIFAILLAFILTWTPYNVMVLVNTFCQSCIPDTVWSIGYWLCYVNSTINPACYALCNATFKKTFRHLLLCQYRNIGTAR
experimentDescription: mAChR M4 cell-based functional assay (calcium mobilization, CHO-K1 hM4-Gqi5 cells)
assayContext: positive allosteric modulator activity, increase in the EC20 acetylcholine response, CHO-K1 hM4-Gqi5 cells; read-out: Human M4 EC50
pEC50: −log10 of the molar value.
reportedEndpoint: pEC50

Worked set:
1. Cc1cc(C(=O)NCC2CCOCC2)cnc1N1CCc2ncc(-c3cn(C)nc3C)cc2C1 [Example 459] = 5.93
2. Cc1nc(Cl)c(C)c(N2CCc3ncc(-c4cn(C)nc4C)cc3C2)n1 [compound 192] = 6.77
3. Cc1cc(C(=O)Nc2ccncc2)cnc1N1CCc2ncc(C(F)(F)F)cc2C1 [Example 442] = 6.37
4. Cc1cc(C(=O)NCc2ccc(-n3ccnc3)nc2)cnc1N1CCc2ncc(-c3cn(C)nc3C)cc2C1 [Example 478] = 6.42
5. Cc1nc(Cl)c(C)c(N2CCc3ncc(Oc4ccccc4F)cc3C2)n1 [compound 204] = 6.48
6. COC(=O)c1cnc(N2CCc3ncc(Br)cc3C2)c(C)c1 [compound 133] = 6.80

I: Cc1cc(C#N)cnc1N1CCc2ncc(Nc3cc(F)cc(F)c3F)cc2C1 [compound 116]
II: Cc1ccc(Oc2cnc3c(c2)CN(c2ncc(C#N)cc2C)CC3)c(F)c1 [Example 349]
III: Cc1cc(C(=O)NCc2ccncc2)cnc1N1CCc2ncc(-c3cnn(C)c3)cc2C1 [compound 176]
IV: Cc1cc(C#N)cnc1N1CCc2ncc(Nc3ccnn3C)cc2C1 [Example 306]
V: Cc1cc(C(=O)NCc2cnc(Cl)s2)cnc1N1CCc2ncc(-c3cn(C)nc3C)cc2C1 [Example 455]
Order the items by recorded pEC50; the first position goes to the largest value. Sort and list the labels as requested. IV, III, I, V, II
(IV: 7.64, III: 6.73, I: 6.47, V: 6.24, II: 5.95)
